# T/C per entry
Tested on: P388 leukemia ip, CD2F1 mice, survival T/C
Assay: NCI In Vivo Anticancer Drug Screen. Data for tumor model P388 Leukemia (intraperitoneal) in CD2F1 (CDF1) mice
Conditions: endpoint: median survival time; dose: 60.0 mg/kg/injection; schedule: Q01DX005 (ip); vehicle: Klucel (hydroxypropylcellulose) (HPC); higher = longer survival
Toxic doses and inconclusive results are not listed.
recorded.metric: T/C

- COc1cc([Se]c2ccccc2)ccc1N(C)C: 107 % of control
- CS(=O)(=O)N1OC1c1ccccc1 (stereo not drawn): 95 % of control
- O=C(N/N=C/c1ccccc1[O-])c1ccccc1O.O=C(N/N=C/c1ccccc1[O-])c1ccccc1O.[Fe+2]: 103 % of control
- OCC1OC(ONc2ccccc2)C(O)C(O)C1O (stereo not drawn): 94 % of control
- C/C(=N/N=C(N)N)c1cn[nH]c1C: 107 % of control
- Nc1ccc(C2NC(=O)Cc3c2ccc2ccccc32)cc1 (stereo not drawn): 95 % of control
- Nc1n[nH]c(CCCCc2nc(N)n[nH]2)n1: 97 % of control
- Cc1ccc(S(=O)(=O)C2(NC(=O)c3ccc(Cl)cc3)CC2)cc1: 93 % of control
- c1ccc2sc(SCCSc3nc4ccccc4s3)nc2c1: 99 % of control
- CCN(CC)C(=O)c1cc(=O)c(C)c2oc3c(C)c(O)c(N)c(C(=O)N(CC)CC)c3nc1-2: 92 % of control
- S=C(N/N=C\c1c[nH]c2ccc(Br)cc12)NC12CC3CC(CC(C3)C1)C2: 98 % of control
- C=C1C[C@]23C[C@@]1(O)CC[C@H]2[C@@]12C=C[C@@H](O1)C(C(=O)OCC)=C2[C@@H]3O: 117 % of control
- CN(NC1OC(=O)c2ccccc21)c1ccc(C(F)(F)F)cc1[N+](=O)[O-] (stereo not drawn): 95 % of control
- OC(Cc1nc2ccccc2s1)c1ccco1 (stereo not drawn): 101 % of control
- Cc1ccc(NP(=S)(Nc2ccc(C)cc2C)Nc2ccc(C)cc2C)c(C)c1: 97 % of control
- CC(=O)OC(OC(C)=O)c1cc(Cl)c(C(OC(C)=O)OC(C)=O)cc1Cl: 107 % of control
- Clc1ccc(Nc2c3ccccc3nc3c2cnn3-c2ccccc2)cc1: 89 % of control
- Oc1ccc(C(c2cc3c(cc2O)OCO3)N2CCN(C(c3ccc(O)cc3)c3cc4c(cc3O)OCO4)CC2)cc1 (stereo not drawn): 104 % of control
- Cc1nc(C(=O)c2ccccc2)cnc1-c1ccccc1: 92 % of control
- CC1([N+](=O)[O-])C(=O)C2(N3CCCCC3)CCCC2C1c1ccccc1 (stereo not drawn): 99 % of control
- COC(=O)N1Cc2cc3ccccc3nc2C1C (stereo not drawn): 101 % of control
- O=C(O)c1c(Cl)n(Cc2ccc(Cl)cc2Cl)c2ccccc12: 100 % of control
- CC(C)CC1N=C(NN=C2CCCCC2)SP1(=O)NNc1ncccn1 (stereo not drawn): 94 % of control

----------
System: P388 leukemia ip, CD2F1 mice, survival T/C
Experiment: NCI In Vivo Anticancer Drug Screen. Data for tumor model P388 Leukemia (intraperitoneal) in CD2F1 (CDF1) mice
Conditions: endpoint: median survival time; dose: 25.0 mg/kg/injection; schedule: Q01DX009 (ip); vehicle: water
Inconclusive results and toxic doses are left out. Rule for the calls: active = survival T/C of 150% or more; inactive = T/C below 125% in these data.
Outcome codes: active, inactive

* CC1OC(OCc2ccc(-c3ccccc3)cc2)CC(N)C1O (stereo not given) | inactive
* CC(=O)OC(C(=O)O)N1C(=O)C2C3C=CC(C2C1=O)C1C2C(=O)N(C(OC(C)=O)C(=O)O)C(=O)C2C31 (stereo not given) | inactive
* COc1ccc(-[n+]2noc(N)n2)cc1 | inactive
* COC(=O)C(COS(=O)(=O)c1ccc(C)cc1)NC(=O)OCc1ccc(OC)cc1 (stereo not given) | inactive
* COc1cccc2c1C(=O)c1c(O)c3c(c(O)c1C2=O)CC(O)(C(=O)CO)CC3OC1CC(N)C(O)C(C)O1 (stereo not given) | active

----------
System: P388 leukemia ip, CD2F1 mice, survival T/C
Assay: NCI In Vivo Anticancer Drug Screen. Data for tumor model P388 Leukemia (intraperitoneal) in CD2F1 (CDF1) mice
Details: endpoint: median survival time; dose: 100.0 mg/kg/injection; schedule: Q01DX001 (ip); vehicle: Klucel (hydroxypropylcellulose) (HPC); higher = longer survival
Toxic doses and inconclusive results are not listed.
recorded.metric: T/C

- NC(=O)N/N=C1/C=CC2(CC=CCC2)CC1 (stereo not drawn): 90 % of control
- Cn1nnnc1NC#N: 107 % of control
- O=[N+]([O-])c1cccc(N/N=C\c2cccc3c(/C=N/Nc4cccc([N+](=O)[O-])c4)c(Cl)n(-c4ccccc4)c23)c1: 86 % of control

----------
System: P388 leukemia ip, CD2F1 mice, survival T/C
Experiment: NCI In Vivo Anticancer Drug Screen. Data for tumor model P388 Leukemia (intraperitoneal) in CD2F1 (CDF1) mice
Conditions: endpoint: median survival time; dose: 200.0 mg/kg/injection; schedule: Q01DX005 (ip); vehicle: Klucel (hydroxypropylcellulose) (HPC); higher = longer survival
Toxic doses and inconclusive results are not listed.
recorded.metric: T/C

• COC(=O)c1ccc(Nc2cn[nH]n2)cc1 = 98 % of control
• CCC1C(=O)COC1=O (stereo unspecified) = 99 % of control
• CCc1nc(-c2ccccc2)nc2c1nc(-c1ccc(C)cc1)n2Nc1ccccc1 = 89 % of control
• CSCCC(NC(=O)C(Cl)Cl)C(=O)O (stereo unspecified) = 100 % of control
• O=C(NC[N+]12CCO[B-]1(c1ccccc1)OCC2)c1ccccc1O (stereo unspecified) = 103 % of control
• CN1C(=O)/C(=C2\SC(=O)N(CN3CCCCC3)C2=O)c2ccccc21 = 99 % of control
• CC(C)=Cc1cc(CCC/C(C)=C/Cc2c(O)cc(C)c(C(=O)O)c2O)co1 = 98 % of control
• COc1ccc(C=NCCC[Si]23OCCN(CCO2)CCO3)c(OC)c1OC = 103 % of control
• COC(=O)c1cc(OC)cc(C)c1OC(=Nc1cccc(Cl)c1C)c1ccccc1 = 96 % of control
• COc1cc(NCCCCCN=C(N)NC#N)c2ncccc2c1 = 92 % of control
• O=[N+]([O-])c1cc2cccc([N+](=O)[O-])c2o1 = 102 % of control

----------
Tested on: P388 leukemia ip, CD2F1 mice, survival T/C
Assay: NCI In Vivo Anticancer Drug Screen. Data for tumor model P388 Leukemia (intraperitoneal) in CD2F1 (CDF1) mice
Conditions: endpoint: median survival time; dose: 200.0 mg/kg/injection; schedule: Q01DX009 (ip); vehicle: Klucel (hydroxypropylcellulose) (HPC); higher = longer survival
Inconclusive results and toxic doses are left out.
Listing of entries alongside the reported T/C.
recorded.metric: T/C

* N#Cc1nc2ccccc2n1OCc1ccccc1 | 102 % of control
* Nc1nc(SCc2ccccc2)sc1C(=O)N1CCCCC1 | 101 % of control
* CCOC(=O)CCC(NC(=O)c1ccc(I)cc1)C(=O)OCC (stereo unspecified) | 102 % of control
* Cc1cnn(C(C(=O)c2ccccc2)c2ccccc2)c1-c1ccccc1 (stereo unspecified) | 98 % of control
* Cc1ccc(C(=O)CS(=O)(=O)c2ccc(C)cc2)cc1 | 96 % of control
* O=C(O)c1ccccc1C(=O)c1ccccn1 | 97 % of control

----------
T/C for assorted compounds
System: P388 leukemia ip, CD2F1 mice, survival T/C
Assay: NCI In Vivo Anticancer Drug Screen. Data for tumor model P388 Leukemia (intraperitoneal) in CD2F1 (CDF1) mice
Settings: endpoint: median survival time; dose: 100.0 mg/kg/injection; schedule: Q01DX005 (ip); vehicle: saline with Tween-80; higher = longer survival
Inconclusive results and toxic doses are left out. Peptide text beside a SMILES is read from it. * marks the point of attachment. Cbz = O=C(OCc1ccccc1)*
recorded.metric: T/C

- O=C1OC(CCc2ccccc2O)c2ccccc21 (centres undefined): 99 % of control
- CCOc1cc(/C=N/NC(=O)N(c2ccccc2)c2ccccc2)ccc1O: 88 % of control
- COC(=O)CNC(=O)C(NC(=O)C1CCCN1C(=O)OCc1ccccc1)C(C)C (stereo not drawn) (Cbz-Pro-Val-Gly-OMe; configuration not given here): 100 % of control
- c1ccc2c(c1)Cc1ccnnc1-2: 103 % of control
- CC(=O)c1c(-c2ccc(F)cc2)c(-c2ccc(F)cc2)nn(CCO)c1=O: 100 % of control
- C=C(C)C(=O)Oc1ccccc1/C=C/C(=O)CCCCCC: 96 % of control
- COC(=O)C[Si](C)(C)C: 98 % of control
- O=c1ccc2ccc3[nH]onc3c2c1: 93 % of control
- O=C(C[n+]1ccsc1Br)c1ccccc1: 119 % of control
- CCCCc1noc(N)c1SCC: 103 % of control
- C[Si]1(C)CC[Si](C)(C)S1: 108 % of control
- CSC(SC)(SC)c1cc(-c2c(Cl)cccc2Cl)no1: 102 % of control
- CC(=O)/C=C/c1ccc(OC(=O)/C=C/c2ccccc2)cc1: 100 % of control
- OC(c1cc(-c2ccccc2)nc2c1ccc1ccccc12)C1CCCCN1 (centres undefined): 100 % of control
- c1ccc(N=C2N=c3ccccc3=C2c2c(Nc3ccccc3)[nH]c3ccccc23)cc1: 90 % of control
- O=C(c1cc(Nc2ccnc3cc(Cl)ccc23)ccc1O)N1CCC(O)(c2ccccc2)CC1: 108 % of control
- CCOc1c(N=Nc2ccccc2OC)c(-c2ccccc2)nn1C(=S)S: 101 % of control
- O=C(/C(=C\c1ccc(F)cc1)S(=O)(=O)c1ccc(F)cc1)c1ccccc1: 102 % of control
- Nc1ccc(N)c2c1C(=O)c1ccccc1C2=O: 105 % of control
- O=C1NC(O)c2cccc(Cl)c2O1 (centres undefined): 102 % of control
- Cc1cc(C)c2ccc(C)c(N)c2n1: 92 % of control
- O=C(Nc1ccccn1)c1ccccc1S(=O)(=O)O: 104 % of control
- Cn1c(=O)c2c(c3ccccc31)OC(C)(C)C=C2: 100 % of control
- CCCCNP1(NCCCC)=NP(NCCCC)(NCCCC)=NP(NCCCC)(NCCCC)=NP(NCCCC)(NCCCC)=N1: 88 % of control
